- Experiment: Cytotoxicity against HEK cells after 72 hrs by MTT assay
- Type: cell-based
- Assay Conditions: Homo sapiens, HEK293, 72 h
pIC50: −log10 of the molar value.
Outcome: T for pIC50 of at least 4; F for anything lower.

Answered examples (5):
Molecule	Class Label
O=c1c2ccccc2nc2n1Cc1cc3ccccc3nc1-2 [LUOTONIN A]	T
Cc1nc2ccccc2c(=O)n1-c1ccccc1Cn1cc(-c2ccccc2)nn1	F
COc1cc2nc(C)n(-c3ccccc3Cn3cc(-c4cccc(C)c4)nn3)c(=O)c2cc1OC	T
COc1cc2nc(C)n(-c3ccccc3Cn3cc(S)nn3)c(=O)c2cc1OC	F
COc1ccc2cc(-c3cn(Cc4ccccc4-n4c(C)nc5ccccc5c4=O)nn3)ccc2c1	F

Answer whether pIC50 of COc1cc2nc(C)n(-c3ccccc3Cn3cc(-c4cccnc4)nn3)c(=O)c2cc1OC is greater than or equal to 4.
T
